System: ncRNAs (SEQ ID NO 28-89)
Assay: ncRNA arrays of melanocytes, keratinocytes, normal skin, melanoma cell lines and patient samples
Design: species or system human
Conditions: melanoma patient 25 sample compared to normal skin
I'd appreciate it if you could supply ncRNA array expression, patient 25 values for the items below.
One number for each entry.

See these solved cases before continuing.
- SEQ ID NO 48 (ACTTATATTCAGAGCATGTGGATTGGGACTCTGAAGAACAACTTTATGGTGGACACCTTC; listed as DNA, chemistry not given here; listed as Homo sapiens): 4.7
- SEQ ID NO 50 (GTTATTATAACCAATGCAGACTTTAAAATCCCACCTGGACATCGGGTGAGAGGAGGAGGG; listed as DNA, chemistry not given here; listed as Homo sapiens): −1.804

Asked: Fill in the blank: the reported ncRNA array expression, patient 25 of SEQ ID NO 72 (AATTACATATATTTAGCAGGATTTTTATTTGCCGTGATATATAGGATAATTTAGTCTTTG; listed as DNA, chemistry not given here; listed as Homo sapiens) is ____.
Given back: 3.664

###

Test system: ncRNAs (SEQ ID NO 28-89)
Test: ncRNA arrays of melanocytes, keratinocytes, normal skin, melanoma cell lines and patient samples
Parameters: species or system human
Details: melanoma patient 25 sample compared to normal skin
Property label: ncRNA array expression, patient 25
One number for each entry.

See these solved cases before continuing.
- SEQ ID NO 84 (TTATTAAAAGGACTGAGGATCATGTGTGTTGGTGTGTCCCGGAGTCTGCTCTAAGGTAAA; listed as DNA, chemistry not given here; listed as Homo sapiens): 1.329
- SEQ ID NO 43 (CTTAATCCACATTTGTTTTGAATTTTTCTGATTCCTATAGTACCATACTCTGATGCCTAT; listed as DNA, chemistry not given here; listed as Homo sapiens): −1.544
- SEQ ID NO 54 (TTTTTTTTCTTGTCCTATTACAACATTTTATAACCTTATGAATCAATGGATACTTTTATT; listed as DNA, chemistry not given here; listed as Homo sapiens): 3.287
- SEQ ID NO 87 (GGGATATTTTTAAGGGGAAGGGGAAGGATAGAGAGAAAGTGCAGGCAGGGCTGGGGTCTG; listed as DNA, chemistry not given here; listed as Homo sapiens): −2.33

Now, please, on to the next substance.
Asked: Fill in the blank: the reported ncRNA array expression, patient 25 of SEQ ID NO 80 (CACACAGCCCAGTCTGCCTGTGATGGTAATATAAATCAAACCAGGGACCCAAGAGCCCAG; listed as DNA, chemistry not given here; listed as Homo sapiens) is ____.
Given back: −1.992

###

Tested on: ncRNAs (SEQ ID NO 28-89)
Test: ncRNA arrays of melanocytes, keratinocytes, normal skin, melanoma cell lines and patient samples
Parameters: species or system human
Settings: melanoma patient 2 sample compared to normal skin
Procedure: An ncRNA array platform that contains over 10,000 putative (>200 nt) ncRNAs including most of the known ncRNAs in mouse and human was conducted to evaluate ncRNAs within melanoma. Lack of coding potential was estimated by an algorithm that scores various characteristics of protein-coding genes, including open reading frame length, synonymous/non-synonymous base substitution rates and similarity to known proteins. […]
Would you please tag the item true (1) when its ncRNA array expression, patient 2 is 2 or above, and false (0) when it is below?

* SEQ ID NO 70 (AGTTATAGAGGAGGCTCAGGAGGATCTGGGGAAACGGGACCAGAGGGTAAGATGGGTTAT; listed as DNA, chemistry not given here; listed as Homo sapiens) | false (0)
* SEQ ID NO 72 (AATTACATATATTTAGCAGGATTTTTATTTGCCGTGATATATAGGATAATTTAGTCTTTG; listed as DNA, chemistry not given here; listed as Homo sapiens) | true (1)
* SEQ ID NO 45 (ATTTAGAGAACATTTAAATCTGTAAGGAAGAAAATAATAACGACTCACAATTACATCATT; listed as DNA, chemistry not given here; listed as Homo sapiens) | false (0)
* SEQ ID NO 33 (TATTGAATGTACACAAGTAATGATGGAGTTTGATTATATGGTTCATTTTCATTTATCCTA; DNA, backbone and methylation of C not given here; listed as Homo sapiens) | false (0)

Asked: Kindly determine if ncRNA array expression, patient 2 recorded for SEQ ID NO 36 (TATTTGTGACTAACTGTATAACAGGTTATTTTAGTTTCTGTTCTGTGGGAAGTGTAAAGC; listed as DNA, chemistry not given here; listed as Homo sapiens) is above or exactly 2.
Given back: true (1)
